# System: S. enterica typhimurium WT
# Method: growth AUC normalised to DMSO control (median) (fraction of control); higher = less growth inhibition, active = hit call of the paper
# Condition Notes: 20 µM
Counter-ions that a name gives are not always drawn.
Metric Name: growth AUC normalised to DMSO control
Enter the number alone.

O=C(NC1CCN(CCCCC2(C(=O)NCC(F)(F)F)c3ccccc3-c3ccccc32)CC1)c1ccccc1-c1ccc(C(F)(F)F)cc1 [Lomitapide] = 1.01

Request: Form field: reported growth AUC normalised to DMSO control of CN1[C@@H]2CC[C@H]1C[C@@H](OC(=O)c1c[nH]c3ccccc13)C2 [Tropisetron hydrochloride]
Response: 1.01

Request: Form field: reported growth AUC normalised to DMSO control of CN(C)CCCC1(c2ccc(F)cc2)OCc2cc(C#N)ccc21 (centres undefined) [Citalopram hydrobromide]
Response: 1

Request: Form field: reported growth AUC normalised to DMSO control of NS(=O)(=O)c1cc2c(cc1Cl)N=CNS2(=O)=O [Chlorothiazide]
Response: 1.01

###

growth AUC normalised to DMSO control: recorded values
# Tested on: S. enterica typhimurium tolC KO
# Method: growth AUC normalised to DMSO control (median) (fraction of control); higher = less growth inhibition, active = hit call of the paper
# Condition Notes: 20 µM
Structures can show the parent of a compound that is named as a salt.
Enter the number alone.

# example entries with known answers
CC(=O)Oc1cc(C(C)C)c(OCCN(C)C)cc1C [Moxisylyte hydrochoride] = 1
Cc1cccc(CN2CCN(C(c3ccccc3)c3ccc(Cl)cc3)CC2)c1 (stereo not given) [Meclozine dihydrochloride] = 1
CN(C)CC/C=C1/c2ccccc2COc2ccc(CC(=O)O)cc21 [Olopatadine hydrochloride] = 0.992

Request: Param readout= growth AUC normalised to DMSO control; system= S. enterica typhimurium tolC KO; entry= O=c1[nH]c(=O)n([C@H]2C[C@H](O)[C@@H](CO)O2)cc1F [Floxuridine] ; returns value.
Response: 0.791

Request: Param readout= growth AUC normalised to DMSO control; system= S. enterica typhimurium tolC KO; entry= CCCc1cc(=O)[nH]c(=S)[nH]1 [Propylthiouracil] ; returns value.
Response: 0.996

###

# Test system: Salmonella enterica typhimurium
# Method: growth AUC normalised to DMSO control (fraction of control); higher = less growth inhibition, active = hit call of the paper
# Condition Notes: 20 µM
Where a name gives a salt, the structure may show the parent alone.
Metric Name: growth AUC normalised to DMSO control
Enter the number alone.

# example entries with known answers
CN1CCN(c2c(F)cc3c(=O)c(C(=O)O)cn4c3c2SCC4)CC1 [Rufloxacin] = 0.006
O=C1NCN(c2ccccc2)C12CCN(CCCC(c1ccc(F)cc1)c1ccc(F)cc1)CC2 [Fluspirilene] = 1.04
CCC(=O)O[C@]1(C(=O)CCl)[C@@H](C)C[C@H]2[C@@H]3CCC4=CC(=O)C=C[C@]4(C)[C@@]3(F)[C@@H](O)C[C@@]21C [Clobetasol propionate] = 1.01

Request: Form field: reported growth AUC normalised to DMSO control of COC(=O)Nc1nc2cc(Sc3ccccc3)ccc2[nH]1 [Fenbendazole]
Response: 0.996

Request: Form field: reported growth AUC normalised to DMSO control of C#C[C@]1(O)CC[C@H]2[C@@H]3[C@H](C)CC4=C(CCC(=O)C4)[C@H]3CC[C@@]21C [Tibolone]
Response: 0.999

Request: Form field: reported growth AUC normalised to DMSO control of CC(=O)OCC(=O)[C@@]1(O)CC[C@H]2[C@@H]3CCC4=CC(=O)CC[C@]4(C)[C@@]3(F)[C@@H](O)C[C@@]21C [Fludrocortisone acetate]
Response: 0.995

Request: Form field: reported growth AUC normalised to DMSO control of CC[C@H]1OC(=O)[C@H](C)[C@@H](O[C@H]2C[C@@](C)(OC)[C@@H](O)[C@H](C)O2)[C@H](C)[C@@H](O[C@@H]2O[C@H](C)C[C@H](N(C)C)[C@H]2O)[C@](C)(O)C[C@@H](C)/C(=N\OCOCCOC)[C@H](C)[C@@H](O)[C@]1(C)O [Roxithromycin]
Response: 0.84

Request: Form field: reported growth AUC normalised to DMSO control of CCCCCCCCNC(C)C(O)c1ccc(SC(C)C)cc1 (stereo not given) [Suloctidil]
Response: 1.02

Request: Form field: reported growth AUC normalised to DMSO control of CN1CCCN=C1/C=C/c1cccs1 [Pyrantel tartrate]
Response: 0.999

Request: Form field: reported growth AUC normalised to DMSO control of CC(C)(C)c1ccc(C(O)CCCN2CCC(C(O)(c3ccccc3)c3ccccc3)CC2)cc1 (stereo not given) [Terfenadine]
Response: 1.01
